# EXPERIMENT NOTES: A qHTS for Small Molecule Inhibitors of Shiga Toxin
# CONDITION CONTEXT: Vero cells, Shiga toxin protein synthesis inhibition reporter; at 38.7 µM
Among all 290,000 compounds or so, about 27,000 (9.3%) were called active. No stated cut-off is given here; in the data, active means inhibition mostly above about 28% (no sharp cut-off); inactive means mostly below about 43%. This excerpt belongs to a sample that is enriched for actives.
Outcomes: Y = active, N = inactive

CCc1cc2c(=O)n(-c3ccccc3)c(SCC(=O)O)nc2s1
N
Cc1nn(C)cc1CNC(=O)Nc1ccc(Cl)cc1
Y
COc1ccc(C2=NOC(COC(=O)c3ccc4ccccc4n3)C2)cc1 (stereo unspecified)
N
COc1cccc(OCc2nnc3n2N=C(c2ccccc2)C(CC(=O)O)S3)c1 (stereo unspecified)
N
O=C(NNC(=O)c1ccco1)Nc1ccccc1
N
COc1ccc(/C(C)=N\NC(=O)c2ccc(-c3ccccc3)cc2)c(F)c1
N
CC(C)CC(=O)Nc1nnc(S(=O)(=O)N(C)c2ccc(Cl)cc2)s1
N
O=C(Nc1ccc(Cl)cc1)Nc1ccc(C(=O)N2CCOCC2)cc1
N
COCCN1C(=O)C(=O)/C(=C(/O)c2ccc(S(=O)(=O)N3CCOCC3)cc2)C1c1ccc(O)c(OC)c1 (stereo unspecified)
N
CC1CN(S(=O)(=O)c2cccc(C(F)(F)F)c2)CN1C(=O)N1CCOCC1 (stereo unspecified)
N
O=C(NNC(=S)Nc1ccc(Br)cc1Cl)c1ccco1
Y
O=C(CNC(=O)c1ccccc1)Oc1ccc([N+](=O)[O-])cc1
N
CCC(=O)NC(=S)Nc1ccc(NC(=O)c2ccco2)c(Cl)c1
N
CC1CCN(CC(=O)Nc2nccs2)CC1
N
Cn1c(CCc2ccccc2)nnc1SCC(N)=O
N
O=C(CC(n1cncn1)C(Cl)(Cl)Cl)c1ccc([N+](=O)[O-])cc1 (stereo unspecified)
N

* * *

inhibition values for the molecules below.
# EXPERIMENT NOTES: A qHTS for Small Molecule Inhibitors of Shiga Toxin
# CONDITION CONTEXT: Vero cells, Shiga toxin protein synthesis inhibition reporter; at 38.7 µM, stronger effect = higher value
About 27,000 (9.3%) of roughly 290,000 compounds were called active. The sample as a whole holds a higher share of actives than the screen did.
METRIC: inhibition (%)

CC(NC(=O)CSc1nc2c(cc1C#N)CN(C)CC2)c1ccccc1 (stereo unspecified)
-9.63
CC(C)(COC(=O)Nc1ccccc1)COC(=O)Nc1ccccc1
35.2
Nc1ccc(S(=O)(=O)Nc2nccc(/C=C/c3ccc(Br)s3)n2)cc1
2.79
O=C(Nc1ccncc1)c1ccc(Cl)c([N+](=O)[O-])c1
-0.478
O=C(NCCc1ccc2c(c1)OCCO2)c1cc2ccccc2o1
5.6
CCOc1ccc(C(C(=O)NC2CCCC2)N(C(=O)c2snc(C(N)=O)c2N)C2CCCC2)cc1 (stereo unspecified)
12.4
O=C(Nc1ccncc1)c1cc2ccccc2o1
57.4
O=C(Cc1csc(Nc2nc(=S)[nH]c3ccccc23)n1)NCCCN1CCN(c2cccc(Cl)c2)CC1
15.7
C/C(=N\NC(=S)Nc1ccc(C)cc1)c1cc2ccccc2o1
30.5
Oc1cccc2ccc(/C=C/c3ccc(Br)s3)nc12
112
Cc1cc(C(=O)NC2CCCc3c2cnn3-c2cccc(C)c2C)c(C)o1 (stereo unspecified)
3.44
Cc1cc(NC(=O)CSc2nc3c(cc2C#N)CCCCC3)no1
78.8
CCNS(=O)(=O)c1ccc(NC(=O)c2cncc(Br)c2)cc1
-9.77
O=C(O)c1ccc(OCC2CCCO2)cc1 (stereo unspecified)
-1.54
Cc1cc(NC(=O)CSc2nc(C(C)C)nc3sc4c(c23)CCC(C)C4)no1 (stereo unspecified)
22.7
Cc1ccc(NC(=O)OCCNC(=O)c2ccncc2)cc1
47.9

* * *

# EXPERIMENT NOTES: A qHTS for Small Molecule Inhibitors of Shiga Toxin
# CONDITION CONTEXT: Vero cells, Shiga toxin protein synthesis inhibition reporter; at 38.7 µM
Among all 290,000 compounds or so, about 27,000 (9.3%) were called active. Cut-off read from the data, not from the text of the source: active = inhibition mostly above about 28% (no sharp cut-off); inactive = mostly below about 43%. The sample as a whole holds a higher share of actives than the screen did. Where a SMILES comes first, the peptide text is derived from it. [ ]: non-standard residue; d: D form. The star is where a group is joined. ξ: configuration not given here. Cbz = O=C(OCc1ccccc1)*; ξL = CC(C)CC(N)C(=O)O; ξP = O=C(O)C1CCCN1
Outcomes: Yes = active, No = inactive

CCOC(=O)c1ccc(NC(=O)CCn2c(=O)oc3ccccc32)cc1
No
COc1ccc(CCc2nc(-c3cccs3)no2)cc1
Yes
CC(C)CC(NC(=O)C1CCCN1C(=O)[C@@H](C)NC(=O)OCc1ccccc1)C(=O)NCC(N)=O (stereo not given in full) (Cbz-[dA][ξP][ξL]G-NH2)
No
CCc1ccc(CNC(=O)CCc2nc(-c3cccs3)no2)cc1
No
CCc1ccc(-c2cc3c(=O)n(CC(=O)NCCCN4CCN(Cc5ccccc5)CC4)nc(C)n3n2)cc1
No

* * *

# EXPERIMENT NOTES: A qHTS for Small Molecule Inhibitors of Shiga Toxin
# CONDITION CONTEXT: Vero cells, Shiga toxin protein synthesis inhibition reporter; at 38.7 µM
The whole screen tested about 290,000 compounds, of which about 27,000 (9.3%) were called active. Rule as the data show it: active = inhibition mostly above about 28% (no sharp cut-off); inactive = mostly below about 43%. What follows is part of a selection rich in actives, with near analogues and random picks from the rest.
Outcomes: label 1 for active, label 0 for inactive

O=C(N=C1SC2CS(=O)(=O)CC2N1c1cc(Cl)ccc1Cl)C1CC1 (configuration not stated)
label 0
C=CCc1cccc(/C=N/NC(=O)COc2ccc(-n3cnnn3)cc2)c1O
label 0
Fc1cc(F)c2nc(Nc3nc4c(F)cccc4s3)sc2c1
label 0
Cc1cc(C)c2nc(N3CCC(C(=O)NCCN4CCOCC4)CC3)sc2c1
label 0
CC1CCCN(c2ccc(C(=O)NCCc3ccccc3)cn2)C1 (configuration not stated)
label 1
CN1CCN(Cc2c(C(=O)N3CCc4ccccc4C3)nc3ccc(Cl)cn23)CC1
label 0
Cc1ccc(C)c(NS(=O)(=O)c2c(C)[nH]c(C)c2C(=O)N2CCCCC2)c1
label 0
COc1ccc(C(=O)OCC(=O)Nc2cccc(C(C)=O)c2)cc1OC
label 0
O=C(CNC(=O)C1COc2ccccc2O1)N/N=C/c1cc(Br)c(O)c(Br)c1 (configuration not stated)
label 0
Fc1cc(F)c2nc(N3CCOCC3)sc2c1
label 1
CN(c1ccccc1)S(=O)(=O)c1ccc(Cl)c(C(=O)NCCc2c[nH]c3ccccc23)c1
label 0
CNC(=O)c1cc2c(ccc3ccccc32)oc1=N
label 0
O=C1Nc2ccccc2C12Nc1ccccc1S2 (configuration not stated)
label 1
O=C(NCCc1c[nH]c2ccccc12)c1cc2ccccc2oc1=O
label 1
Cc1ccc2c(c1)N(C(=O)CCC(=O)N1CCc3ccccc3C1)CCO2
label 0
O=c1oc2cc(O)ccc2cc1-c1ccc(F)cc1
label 1
O=C(c1cc(-c2cccc(O)c2)on1)N1CCc2ccccc2C1
label 1
CCc1ccccc1NC(=O)[C@@H]1CCC(=O)N1C1OC(=O)c2c1ccc(OC)c2OC (some centres not stated)
label 0
COc1ccc(N(C(=O)c2cccnc2)S(=O)(=O)c2ccc(OC)c(OC)c2)cc1
label 0
CC1CCN(c2c(NCc3ccc(C(=O)NCc4ccccc4)cc3)c(=O)c2=O)CC1
label 0
CC1CCC2CCCCC2N1C(=O)c1cc([N+](=O)[O-])cc([N+](=O)[O-])c1 (configuration not stated)
label 0
CC1(C(=O)NCCc2c[nH]c3ccccc23)C=CC2(CCCCC2)N1C(=O)c1ccccc1 (configuration not stated)
label 0
O=C(NC(=S)Nc1ccc(NC(=O)c2cccs2)cc1)c1ccc([N+](=O)[O-])cc1
label 0
O=C(NCCC1=CCCCC1)C1CCN(Cc2cnn(-c3ccccc3)c2-n2cccc2)CC1
label 0
COc1ccc(C(=O)COC(=O)Cn2cnc3c2c(=O)n(C)c(=O)n3C)c(OC)c1
label 0
O=C(N/N=C/c1cc2c(cc1Br)OCO2)C1COc2ccccc2O1 (configuration not stated)
label 1
Cc1ccc2c(C)c(C(=O)N(C)Cc3ccncn3)oc2c1C
label 0
N=c1oc2ccccc2cc1C(=O)N/N=C/c1ccccc1
label 1
O=C(N/N=C\c1cc(Br)c(Br)o1)C1COc2ccccc2O1 (configuration not stated)
label 0
COc1cccc2cc(C(=O)NCc3ccc(C)cc3)c(=N)oc12
label 0
O=C(N/N=C\c1cccc(Br)c1)c1ccccc1-n1cccc1
label 0
COCCN(C(=O)CCC(=O)Nc1nccs1)C(C(=O)NCCC(C)C)c1ccc(F)cc1 (configuration not stated)
label 0

* * *

# EXPERIMENT NOTES: A qHTS for Small Molecule Inhibitors of Shiga Toxin
# CONDITION CONTEXT: Vero cells, Shiga toxin protein synthesis inhibition reporter; at 38.7 µM
The campaign covered roughly 290,000 compounds. About 27,000 (9.3%) were called active. No stated cut-off is given here; in the data, active means inhibition mostly above about 28% (no sharp cut-off); inactive means mostly below about 43%. The sample as a whole holds a higher share of actives than the screen did.
Outcomes: YES for active, NO for inactive

Cc1nn(-c2ccccc2)c(Cl)c1C(=O)Nc1ccccc1
YES
Cc1ccccc1NC(=O)CSc1nc2ccc(Nc3nc(N4CCOCC4)nc(N4CCOCC4)n3)cc2s1
NO
CCSc1nnc(SCC(=O)NNC(=O)c2ccccc2F)s1
NO
O=C(NCCc1cccc(F)c1)C1CCCN(c2nc3ccccc3s2)C1 (stereo not given)
NO
CC(C)NS(=O)(=O)c1ccc(NC(=O)c2cccnc2)cc1
NO
CC(C)C(=O)Nc1ccc2oc(=O)ccc2c1
NO
Cc1nc2ccc(C(=O)O)cc2[nH]1
NO
O=C(c1ccc2nc(N3CCOCC3)sc2c1)N1CCN(c2ccc(Cl)cc2)CC1
NO
Cc1cccc(C)c1OCC(=O)NC(Cc1c[nH]c2ccccc12)C(=O)O (stereo not given)
NO
CCCCCCCCC(=O)NCCOc1ccccc1
NO
COc1cc(C(=O)NCC2(c3ccccc3)CCCC2)ccc1OC(C)C
NO
Cc1cccc(C(=O)N2CCc3c([nH]c4ccccc34)C2CC(C)C)n1 (stereo not given)
YES
CC1CC(C)CN(CCCNC(=O)c2csc3c2CCCCC3)C1 (stereo not given)
NO
COc1ccc(CCNC(=O)CN2C(=O)COc3ccc(S(=O)(=O)N4CCCC4)cc32)cc1OC
NO
CCC(C)NC(=O)CSC1=Nc2ccccc2C2=NC(CCC(=O)NCc3ccco3)C(=O)N12 (stereo not given)
NO
CCOC(=O)C1CN(S(=O)(=O)c2ccc(OC)cc2)c2cc(Cl)ccc2O1 (stereo not given)
NO
O=C1CCCc2nn(-c3ccccc3)nc21
YES
COC(=O)c1cc(S(=O)(=O)NCC2CCN(Cc3ccc(Cl)cc3)CC2)cn1C
NO
O=C(COc1nsnc1N1CCOCC1)Nc1ccccc1Cl
NO
Cc1nn(-c2ccccc2)c(C)c1/C=C/C(=O)OC(C)C(N)=O (stereo not given)
NO

Entry source: PubChem BioAssay AID2315
